METHOD_DESCRIPTION: soluble fraction after stress (log2 fold change); higher = more stays soluble; pooled small domains, quantitative proteomics;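 also: 20 min heating vs room temperature control held 20 min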
MEASUREMENT_CONTEXT: stress: 75 degC
Using soluble fraction (log2) as the sorting value, the categories are group A: < -0.9; group B: ≥ -0.9 and < -0.07; group C: ≥ -0.07

Field: example entries. Status: answers known.
> print(dat)
                              sequence.data  category.label
1  HMSDPSRKADFIAALSSLGGSAGNGKLREQLGWDEPTYDAVKQTLLDEGAITNGRGRGGSVALAG         group C
2  HMTDIKYLIADGNDIKHWDTASSSYVKVSELPLTSDKFKIYGDDIYHKERTGIIAASPILKIWSPSAE         group C
3  HMSFPQVELNTNKGRIVLELNSEKAPKTVANFLEYVRDGFYDGVIFHRVIDGFMIQGGGFDENFKEKA         group B
4  HMRMSLDEAKAVVLPIGEYKGRNMGEVLAIKPELIDFYASQKFNSSKYPYLKEAAQVILENQ         group C
5  HMLIIMNSDATKEQVDHVTSRVREAGFKDHIMPGAGKVAIGVTGTGDYDQTKLHLEILPGVFKIMRITK         group B

Proceed to the following item.
IN: # classify by soluble fraction (log2) band: HMPMTDYQLIRSNRRTIALQITRDARVVVRAPLYASEADIRRFVESHRAWIESHLDRQRARTD
OUT: group A
